- method-description: Total antioxidant capacity
- experimental-setup: CUPRAC, Trolox equivalent, at any one concentration tested, n=2
measurement-kind: Total antioxidant capacity (TAC) relative to Trolox

| compound | measured-result |
| --- | --- |
| OC[C@H]1O[C@@H](O[C@H]2[C@H](Oc3cc4c(O)cc(O)cc4[o+]c3-c3ccc(O)c(O)c3)O[C@H](CO)[C@@H](O)[C@@H]2O)[C@H](O)[C@@H](O)[C@@H]1O [Cyanidin 3-O-sophoroside] | greater than 5 fold |
| O=c1c(O)c(-c2ccc(O)c(O)c2)oc2cc(O)cc(O)c12 [Quercetin] | greater than 5 fold |
| O=c1c(O)c(-c2cc(O)c(O)c(O)c2)oc2cc(O)cc(O)c12 [Myricetin] | greater than 5 fold |
